tested on: RCC4 EV cells (VHL(−) mutant); assay: Clonogenicity assay (colony formation); format: cell-based; settings: Homo sapiens, ccRCC, VHL status Mut, 96 h drug then 96 h drug-free, read-out: Clonogenic IC50
recorded-endpoint: IC50
Write the quantity with the unit trailing the number.

Ask: Which IC50 reading was recorded for the molecule `C(=NNC1=NCCN1)c1c2ccccc2c(C=NNC2=NCCN2)c2ccccc12` ?
Reply: 0.167 µM

Data credit: patent US20250186438A1
